# Tested on: MDA-N
# EXPERIMENT_SUMMARY: NCI tumour cell line growth inhibition, 48 h
The source made the active and inactive calls. Cut-off read from the data, not from the text of the source: active = GI50 up to about 1.1 µM and inactive = higher.
Choose one outcome from this list and give only that: 1 (yes) for active, 0 (no) for inactive

(Q) Given O=C1C(Cl)=C(Oc2ccc([N+](=O)[O-])cc2)C(=O)c2c(O)ccc(O)c21 , state the outcome it received in this test.
(A) 0 (no)

(Q) Proceed to CCOC(=O)/C=C(/N=P(c1ccccc1)(c1ccccc1)c1ccccc1)C(F)(F)F
(A) 0 (no)

(Q) Proceed to Cc1cc(O)c2c3c(ccc2c1)C(=O)c1c(O)cccc1C3=O [TETRANGULOL]
(A) 1 (yes)

###

Provide the recorded GI50 for the entries that follow.
# Tested on: SF-539
# EXPERIMENT_SUMMARY: NCI tumour cell line growth inhibition, 48 h
Calls of active or inactive are those of the source. Cut-off read from the data, not from the text of the source: active = GI50 up to about 1.1 µM and inactive = higher.

(Q) # GI50 lookup, item O=NN(CCCl)C(=O)Nc1ccc(Cl)c(Cl)c1
(A) > 91.2 µM (inactive)

(Q) Proceed to Cc1cc2ncc3c(=O)n(NS(=O)(=O)c4ccc(N)cc4)ccc3n2n1
(A) > 100 µM (inactive)

(Q) Proceed to N#Cc1nc(CCCCCN2C(=O)c3ccccc3C2=O)oc1N
(A) > 100 µM (inactive)

(Q) Proceed to COc1cc2c(cc1OC)C1C(=O)c3c(O)cc4c(c3OC1CO2)C=CC(C)(C)O4 (centres undefined)
(A) 18.2 µM (inactive)

(Q) Proceed to COc1cc2c(cc1O)NC(=O)[C@@H]1C[C@@H](O)CN1C2=O
(A) 43.8 µM (inactive)

(Q) Proceed to C=C1C(=O)O[C@@H]2/C=C(\C)CC/C=C(\C)CC[C@@]12O
(A) 1.2 µM (inactive)

(Q) Proceed to O=C1C(Cl)=C(Oc2ccc([N+](=O)[O-])cc2)C(=O)c2c(O)ccc(O)c21
(A) > 100 µM (inactive)

(Q) Proceed to c1cc(C[S+]2CCCC2)oc1C[S+]1CCCC1
(A) > 100 µM (inactive)

(Q) Proceed to Oc1cc(O)c2c(c1)OC(c1ccc(O)c(O)c1)C(OC1(c3cc(O)c(O)c(O)c3)Oc3cc(O)cc(O)c3C(O)C1O)C2 (centres undefined)
(A) 32.1 µM (inactive)

(Q) Proceed to O=c1cc(N2CCN(c3cc(=O)n4ccccc4n3)CC2)oc2ccccc12
(A) > 100 µM (inactive)

(Q) Proceed to COc1ccc2c(c1)[C@@]13CCN4CC5=CCO[C@H]6CC(=O)N2[C@H]1[C@H]6[C@H]5C[C@H]43
(A) > 100 µM (inactive)

(Q) Proceed to Cn1c(=O)oc2cc(C(O)CN3CCN(Cc4ccc5c(c4)OCO5)CC3)ccc21 (centres undefined)
(A) > 100 µM (inactive)

(Q) Proceed to O=C1Sc2ccc(Br)cc2C(=O)Sc2ccccc21
(A) 11.6 µM (inactive)

(Q) Proceed to COC(=O)C1(C)CCc2c(OC)ccc(OC)c2C1=O (centres undefined)
(A) > 100 µM (inactive)

(Q) Proceed to CNc1ccc(C(=O)CC(O)CCC(C)C2OC(=O)CC(O)CC(=O)CC(O)CC(O)CC(O)CC(O)CC3(O)CC(O)C(C(=O)NCCN(C)C)C(CC(OC4OC(C)C(O)C(NC(=O)CN5CCN(C)CC5)C4O)\C=C/C=C\C=C/C=C/C=C/C=C\C=C/C2C)O3)cc1 (centres undefined)
(A) 37.7 µM (inactive)

(Q) Proceed to COc1cccc2c1[C@H]1CO[C@H]3C4C[C@H](C(=O)O)C([C@@H](C2)N13)N4C (some centres undefined)
(A) 1.56 µM (inactive)

(Q) Proceed to Cc1c(C)c(S(=O)(=O)N(CCCCCN)OCCCN)c(C)c2c1OC(C)(C)CC2
(A) > 25.3 µM (inactive)

(Q) Proceed to CCCCCc1cc(OC(=O)c2c(O)cc(OC)cc2CCCCC)cc(O)c1C(=O)O
(A) 16.8 µM (inactive)

(Q) Proceed to COC(=O)[C@@]12CCCC(=O)[C@@H]1[C@H]1CCC[C@H]12
(A) > 100 µM (inactive)

(Q) Proceed to COc1ccc(C[C@H](N)C(=O)N2C[C@@H](CO)C[C@@H](n3cnc4c(N(C)C)ncnc43)C2)cc1
(A) > 100 µM (inactive)

(Q) Proceed to Cc1cc(C)c(P2C(=C(O[Si](C(C)C)(C(C)C)C(C)C)C(C)(C)C)C2(c2ccccc2)c2ccccc2)c(C)c1 (centres undefined)
(A) > 100 µM (inactive)

(Q) Proceed to COC1CC(OS(=O)(=O)c2ccc(C)cc2)C(OS(=O)(=O)c2ccc(C)cc2)C(COS(=O)(=O)c2ccc(C)cc2)O1 (centres undefined)
(A) 1.88 µM (inactive)

(Q) Proceed to COc1ccc(CNc2nc(NCc3ccc(OC)cc3)nc(NC3CCCCC3)n2)cc1
(A) 3.01 µM (inactive)

(Q) Proceed to NC(=O)NC12CC3CC(CC(F)(C3)C1)C2
(A) > 100 µM (inactive)

(Q) Proceed to CC(=O)NC(CCCN(Cc1ccccc1)C(=O)N(C)N=O)C(=O)NCc1ccccc1 (centres undefined)
(A) > 100 µM (inactive)

(Q) Proceed to CCNCCNC(=O)c1ccc(Br)cc1
(A) > 100 µM (inactive)

(Q) Proceed to CCC(CO)Nc1nc2c(c(=O)n(C)c(=O)n2C)n1CCO (centres undefined)
(A) > 100 µM (inactive)

(Q) Proceed to CCOC(=O)C/C(=N\c1cc(C)on1)N(CC)CC.[O-][Cl+3]([O-])([O-])O
(A) > 100 µM (inactive)

(Q) Proceed to Cc1nc2ccc(N)cc2nc1O
(A) > 100 µM (inactive)

(Q) Proceed to Cc1ccnc(NS(=O)(=O)c2ccc(N=[N+]=[N-])cc2)n1
(A) > 100 µM (inactive)

(Q) Proceed to O=C(O)c1cccc(OCCO)c1
(A) > 100 µM (inactive)

(Q) Proceed to [O-][S+]1c2ccccc2N=C(c2cccs2)CC1c1ccccc1O (centres undefined)
(A) > 100 µM (inactive)

(Q) Proceed to CCOC(=O)CN1CCS/C1=N/C#N
(A) > 100 µM (inactive)

(Q) Proceed to CC1CC(C)CC(NC2=NCCO2)C1 (centres undefined)
(A) > 100 µM (inactive)

###

# Tested on: CCRF-CEM
# EXPERIMENT_SUMMARY: NCI tumour cell line growth inhibition, 48 h
Active and inactive are the calls of the source. No stated cut-off is given here; in the data, active = GI50 up to about 1.1 µM and inactive = higher.
Choose one outcome from this list and give only that: yes (1) = active, no (0) = inactive

(Q) Given Cc1ccc(C(=O)O/N=C2/CCCCC2CN(C)C)cc1 (stereo not given) , state the outcome it received in this test.
(A) no (0)

(Q) Proceed to COC(=O)C1=C([C@H]2COC(C)(C)O2)[C@H]2C[C@@H]1[C@@H]1OC(C)(C)O[C@@H]12
(A) no (0)

(Q) Proceed to O=C(CCN1CCCCC1CO)Nc1ccc2c(c1)C(=O)c1ccc(NC(=O)CCN3CCCCC3CO)cc1C2=O (stereo not given)
(A) no (0)

(Q) Proceed to O=[N+]([O-])C(=C(Nc1ccccc1)Nc1ccccc1)/C(Cl)=C(\Cl)Br
(A) no (0)

(Q) Proceed to N#CN=C(NCc1ccccc1)NCc1ccccc1
(A) no (0)

(Q) Proceed to c1cc(C[S+]2CCCC2)oc1C[S+]1CCCC1
(A) no (0)

(Q) Proceed to COc1cc(C=O)cc(O)c1O
(A) no (0)

(Q) Proceed to Cc1nc2ccccc2n1CCc1nc2ccccc2s1
(A) no (0)

(Q) Proceed to O=C(O)OC12CCCCCC1C(=O)C1CCCCC12 (stereo not given)
(A) no (0)

(Q) Proceed to C#CC(=O)OCC#CCOC(=O)C#C
(A) no (0)

(Q) Proceed to O=C1OC(C2=CC(=O)c3ccccc3C2=O)C(Cl)=C1Cl (stereo not given)
(A) no (0)

(Q) Proceed to COc1ccc(/C(Cl)=C/c2ccc(Cl)c(Cl)c2)cc1
(A) no (0)

(Q) Proceed to Cc1ccc([N+](=O)[O-])cc1S(=O)(=O)Nc1ccc(C2=NN(C(=O)c3ccccc3)C(c3ccccc3)C2)cc1 (stereo not given)
(A) no (0)

(Q) Proceed to C=CCC1CC(n2cc(C)c(=O)[nH]c2=O)OC1CO[Si](C)(C)C(C)(C)C (stereo not given)
(A) no (0)

(Q) Proceed to O=C1COc2cc3c(cc2N1)SCCC(=O)N3
(A) no (0)

(Q) Proceed to [N-]=[N+]=CC(=O)CCC(N)C(=O)O (stereo not given)
(A) yes (1)

(Q) Proceed to CC1=CC(/C=C(\C)CCCc2ccoc2)C2(OC(=O)C(C)=C2O)[C@H]2C1CC[C@@H]2C (stereo not given in full)
(A) no (0)

(Q) Proceed to COc1ccc(C[C@H](N)C(=O)N2C[C@@H](CO)C[C@@H](n3cnc4c(N(C)C)ncnc43)C2)cc1
(A) no (0)

(Q) Proceed to N#Cc1c(-c2ccc([N+](=O)[O-])cc2)cc(-c2ccc(Nc3ccnc4cc(C(F)(F)F)ccc34)cc2)[nH]c1=O
(A) no (0)

(Q) Proceed to Nc1nc(NNc2ccccc2F)cc(=O)[nH]1
(A) no (0)

Value source: ChEMBL document CHEMBL1201862
